The origin of these recorded values is PubChem BioAssay (NCATS).

What activity change, negative = inhibition was measured for each of the following?
- Experimental details: AP1 Signaling Pathway (AID 357);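 further: ME-180 reporter cells stimulated with EGF at its EC50 level; on the % scale 0 is the no-effect control and ±100 the full control effect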
- Condition set: ME-180 (cervical carcinoma) AP-1-bla reporter, EGF-induced, beta-lactamase ratio, 5 h; at 7.69 µM (top of the series) unless noted
Records with an inconclusive call do not appear. Activity calls are given as the source filed them. The call rests on the fitted dose curve; in most records, active means well fitted curve in either direction with a large enough effect (not every such curve was filed as active); inconclusive means small, poorly fitted or top-dose-only effect, or another doubt; inactive means flat fitted curve, though single readings scatter.

State its activity change, negative = inhibition: `CC(=O)Nc1cc(CN2CCCCC2)c(O)c2ncccc12`
4.21% (inactive)

Query activity change, negative = inhibition for `COc1ccc2ccccc2c1/C=C\C(=O)c1ccccc1`
-15.4% (inactive)

Using the record for `CN(Cc1cc(Cl)cc(Cl)c1O)Cc1c(O)ccc2ccccc12` , state its measured activity change, negative = inhibition.
-8.51% (inactive)

In one line, give reported activity change, negative = inhibition of the entry `O=C1CC[C@H](NC(=O)c2ccccc2)C(=O)N1` .
5.12% (inactive)

Return activity change, negative = inhibition for the following molecule: `O=C(C[N+]1(c2ccccc2)CCOCC1)c1ccccc1`
-5.21% (inactive)

Give reported activity change, negative = inhibition value for `O=C(O)c1c2c(c(O)c3c1CN(C1CCCCC1)CO3)OCN(C1CCCCC1)C2`
4.96% (inactive)

Indicate its recorded activity change, negative = inhibition; the molecule in question is `O=C(O)c1ccccc1-c1ccccc1C(=O)Nc1ccc2c(c1)Cc1cc(F)ccc1-2`
-17.3% (inactive)

Please indicate activity change, negative = inhibition recorded for `N=C(N)SCCc1ccncc1`
3.09% (inactive)

Identify measured activity change, negative = inhibition associated with `O[C@@H](COc1ccc(Cl)cc1Cl)CN1CCCC1`
7.86% (inactive)

Supply reported activity change, negative = inhibition belonging to this molecule: `CC(C)(CO[C@H]1C[C@H]2CC[C@@]1(C)C2(C)C)[N+](=O)[O-]`
-1.64% (inactive)

Quick one: give measured activity change, negative = inhibition for `Cc1cccc(C)c1OC[C@@H](N)C(C)C`
9.48% [at 38 µM] (inactive)

Respond only with activity change, negative = inhibition recorded for `N[C@@H](Cc1ncccn1)C(=O)O`
-0.104% (inactive)

Name the recorded activity change, negative = inhibition of the molecule listed here: `Cc1cc(Cl)ccc1Nc1sc(C(=O)c2cc3cc(Cl)ccc3o2)c(N)c1C#N`
-2.93% (inactive)

Find the measured activity change, negative = inhibition of `O=C(O)c1ccc(N[C@H](c2ccccc2)c2ccc3cccnc3c2O)cc1` and report it.
-0.822% (inactive)

// Input: `COc1cc(OC)cc([C@H](CNc2ncnc3c2ncn3[C@@H]2O[C@@H](CO)[C@H](O)[C@@H]2O)c2ccccc2C)c1` . Output its activity change, negative = inhibition only.
-6.78% [at 38 µM] (inactive)

Return activity change, negative = inhibition for the following molecule: `Fc1cccc(F)c1C(Nc1nncs1)Nc1nncs1`
1.35% (inactive)

Provide measured activity change, negative = inhibition value, entry: `COC(=O)CC[C@@H](C)[C@H]1CC[C@H]2[C@H]3CC[C@H]4C[C@@H]5CC[C@@]4(C)C3(O5)[C@@H](Br)[C@@H](Br)[C@@]12C`
21.4% (inactive)

Tell me its activity change, negative = inhibition given `CC(C)(C)c1ccc(OC(=O)Nc2ccc(O)c(C(=O)O)c2)cc1` as the entry.
-0.0209% (inactive)

Recall and state the measured activity change, negative = inhibition for `COc1ccc(C=Nc2c(O)ccc3ccccc23)cc1OC` .
-0.822% (inactive)

Report measured activity change, negative = inhibition; entry is `COc1cc2nc(N(C)CCCNC(=O)[C@@H]3CCCO3)nc(N)c2cc1OC`
7.7% [at 17.2 µM] (inactive)

Dear colleague, please send me the reported activity change, negative = inhibition for `C[C@H](OP(=O)(O)O)[C@H](N)C(=O)O` when you can.
0.907% (inactive)

Quote activity change, negative = inhibition reported for `C[C@@H](SCc1ccccc1)C(=O)O` please.
-4.75% (inactive)

For the molecule `CC1(C)N=C(N)N=C(N)N1CCCCc1ccccc1` , give its measured activity change, negative = inhibition value.
7.1% (inactive)
